// provenance: PubChem BioAssay AID264

Test system: nude mice, LX-1 lung xenograft intrarenal, tumor weight T/C
Test: NCI In Vivo Anticancer Drug Screen. Data for tumor model Human Lung LX-1 Xenograft (intrarenal inoculation) in NU/NU Swiss (nude) mice
Settings: endpoint: mean tumor weight change; dose: 200.0 mg/kg/injection; schedule: Q01DX010 (sc); vehicle: Klucel (hydroxypropylcellulose) (HPC); higher = larger tumour
Results filed as inconclusive are left out.
For each record, write down the corresponding T/C.

Consider the molecule CN(C)/N=N/c1nc[nH]c1C(N)=O and give its measured T/C. -100 % of control

Suppose we examine the molecule O=c1[nH]c(=O)n([C@H]2CCCO2)cc1F ; what T/C value has been reported? 93 % of control

Give the measured T/C of O=C(Nc1ccc(Cl)c(Cl)c1)Nc1c(Oc2ccc(Cl)c(Cl)c2)ccc(Cl)c1S(=O)(=O)O . 50 % of control

Can you share its T/C? I mean this molecule: Cc1ccc(C(=O)[O][Hg][CH2]C2COC([CH2][Hg][O]C(=O)c3ccc(C)cc3)CO2)cc1 (centres undefined) 63 % of control

Could you share which T/C value was measured for O=C([CH-]C(=O)C(F)(F)F)c1ccccc1.O=C([CH-]C(=O)C(F)(F)F)c1ccccc1.O=C([CH-]C(=O)C(F)(F)F)c1ccccc1.O=C([CH-]C(=O)C(F)(F)F)c1ccccc1.[Eu+3].c1ccncc1 ? 49 % of control

I'd like to know its T/C. The molecule in question is C[C@]12CCC(=O)C(O)=C1CC[C@@H]1[C@@H]2CC[C@]2(C)C(=O)CC[C@@H]12 47 % of control

Tell me the measured T/C of CCCCCC[C@H]([C@H](C)O)n1cnc2c(N)ncnc21 , please. 34 % of control

// query T/C value for entry Nc1ccccc1N 83 % of control

Name the recorded T/C for OC(CBr)C(O)C(O)C(O)CBr (centres undefined) . 89 % of control
